Reported IC50 values for the following compounds.
Study Target: human B-Raf (Homo sapiens, UniProt P15056)
Construct: Flag; GST; made in house; host or cells: Sf9 insect cells (B-Raf); E. coli (MEK1-GST)
Sequence (P15056 whole entry): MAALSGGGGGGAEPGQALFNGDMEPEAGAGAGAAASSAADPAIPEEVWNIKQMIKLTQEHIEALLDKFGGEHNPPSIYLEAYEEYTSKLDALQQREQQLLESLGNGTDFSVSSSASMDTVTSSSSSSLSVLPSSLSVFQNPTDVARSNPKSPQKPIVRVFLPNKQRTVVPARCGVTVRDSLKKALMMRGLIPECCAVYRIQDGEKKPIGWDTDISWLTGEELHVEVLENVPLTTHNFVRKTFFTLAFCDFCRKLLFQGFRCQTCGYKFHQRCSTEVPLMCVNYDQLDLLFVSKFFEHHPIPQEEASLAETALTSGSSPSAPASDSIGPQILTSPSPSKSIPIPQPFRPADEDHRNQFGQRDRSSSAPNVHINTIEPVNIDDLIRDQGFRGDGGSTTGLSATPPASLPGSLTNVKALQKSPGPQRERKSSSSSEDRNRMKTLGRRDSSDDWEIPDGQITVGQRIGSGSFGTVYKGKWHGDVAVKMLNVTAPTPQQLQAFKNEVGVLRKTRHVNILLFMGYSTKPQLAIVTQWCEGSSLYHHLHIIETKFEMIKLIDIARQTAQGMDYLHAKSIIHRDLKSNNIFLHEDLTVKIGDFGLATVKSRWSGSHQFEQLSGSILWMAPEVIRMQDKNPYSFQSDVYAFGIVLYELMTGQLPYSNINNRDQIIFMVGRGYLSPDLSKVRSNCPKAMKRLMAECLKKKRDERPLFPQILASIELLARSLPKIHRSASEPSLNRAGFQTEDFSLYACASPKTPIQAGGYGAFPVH
Assay Summary: B-Raf Kinase to MEK1 ELISA
Assay type: biochemical
Experimental Setup: median; cpd concentrations from 10 μM to 30 nM in half log dilutions; read-out: Median IC50
Property Name: IC50

[[record]]
compound = "CCOC(=O)c1cnn2c(-c3cccc(NC(=O)Cc4ccc5c(c4)OCO5)c3)ccnc12 [Example 100]"
property_name = "IC50"
observed_result = "> 10 µM"

[[record]]
compound = "CN1CCC(c2cnn3c(-c4cccc(NC(=O)c5cccc(C(F)(F)F)c5)c4)ccnc23)CC1 [Example 309]"
property_name = "IC50"
observed_result = "1.33 µM"

[[record]]
compound = "Cc1ccc(C(=O)Nc2cccc(-c3ccnc4cc(-c5ccncc5)nn34)c2)cc1C(F)(F)F [Example 134]"
property_name = "IC50"
observed_result = "0.04 µM"

[[record]]
compound = "CCOC(=O)c1cnn2c(-c3cccc(NC(=O)Nc4cc(C(F)(F)F)cc(C(F)(F)F)c4)c3)ccnc12 [Example 16]"
property_name = "IC50"
observed_result = "3.78 µM"

[[record]]
compound = "Cc1ccc(C(=O)Nc2cccc(-c3ccnc4c(-c5cccc(C#N)c5)cnn34)c2)cc1C(F)(F)F [Example 182]"
property_name = "IC50"
observed_result = "> 10 µM"

[[record]]
compound = "CCOC(=O)c1cnn2c(-c3cccc(NC(=O)c4ccc(C(F)(F)F)c(F)c4)c3)ccnc12 [Example 9]"
property_name = "IC50"
observed_result = "> 20 µM"

[[record]]
compound = "CCOC(=O)c1cnn2c(-c3cccc(NC(=O)Nc4cc(C)no4)c3)ccnc12 [Example 247]"
property_name = "IC50"
observed_result = "> 10 µM"

[[record]]
compound = "CCOC(=O)c1cnn2c(-c3cccc(NC(=O)c4cc(Cl)ccn4)c3)ccnc12 [Example 217]"
property_name = "IC50"
observed_result = "> 10 µM"


====

Study Target: human B-Raf (Homo sapiens, UniProt P15056)
Construct: Flag; GST; made in house; host or cells: Sf9 insect cells (B-Raf); E. coli (MEK1-GST)
Assay Summary: B-Raf Kinase to MEK1 ELISA
Assay type: biochemical
Experimental Setup: median; cpd concentrations from 10 μM to 30 nM in half log dilutions; read-out: Median IC50
Reported IC50 values for the following compounds.
Property Name: IC50 (µM)

[[record]]
smiles_data = "Cc1cc(-c2cccc(NC(=O)c3cccc(C(F)(F)F)c3)c2)n2nc(-c3ccncc3)cc2n1"
measure_unit = "µM"
qual = "="
observed_result = 0.8

[[record]]
smiles_data = "CCOC(=O)c1cnn2c(-c3cccc(NC(=O)c4cc(Cl)cc(Cl)c4)c3)ccnc12"
measure_unit = "µM"
qual = ">"
observed_result = 10

[[record]]
smiles_data = "CCOC(=O)c1cnn2c(-c3cccc(NC(=O)Nc4ccc(C(C)=O)cc4)c3)ccnc12"
measure_unit = "µM"
qual = ">"
observed_result = 10

[[record]]
smiles_data = "Cc1cccc(C(=O)Nc2cccc(-c3ccnc4cc(-c5ccncc5)nn34)c2)c1"
measure_unit = "µM"
qual = "="
observed_result = 1.4

[[record]]
smiles_data = "CCOC(=O)c1cnn2c(-c3cc(NC(=O)c4ccc(C)c(C(F)(F)F)c4)ccc3[N+](=O)[O-])ccnc12"
measure_unit = "µM"
qual = ">"
observed_result = 10

[[record]]
smiles_data = "CCOC(=O)c1cnn2c(-c3cccc(NC(=O)c4cc(C(C)(C)C)cc(C(C)(C)C)c4)c3)ccnc12"
measure_unit = "µM"
qual = "="
observed_result = 1.6

[[record]]
smiles_data = "O=C(Nc1cccc(-c2ccnc3c(Br)cnn23)c1)Nc1ccc(F)c(C(F)(F)F)c1"
measure_unit = "µM"
qual = "="
observed_result = 4.99

[[record]]
smiles_data = "CCOC(=O)c1cnn2c(-c3cccc(NC(=O)c4cccc(C)c4)c3)ccnc12"
measure_unit = "µM"
qual = ">"
observed_result = 10

[[record]]
smiles_data = "CCOC(=O)c1cnn2c(-c3cccc(NC(=O)Cc4cc(C(F)(F)F)cc(C(F)(F)F)c4)c3)ccnc12"
measure_unit = "µM"
qual = ">"
observed_result = 10

[[record]]
smiles_data = "CCOC(=O)c1cnn2c(-c3cccc(NC(=O)c4cc(F)cc(C(F)(F)F)c4)c3)ccnc12"
measure_unit = "µM"
qual = "="
observed_result = 6.6

[[record]]
smiles_data = "CN(C)S(=O)(=O)c1ccc(-c2cnn3c(-c4cccc(NC(=O)c5cccc(C(F)(F)F)c5)c4)ccnc23)cc1"
measure_unit = "µM"
qual = ">"
observed_result = 10

[[record]]
smiles_data = "CN(C)CCNC(=O)c1cnn2c(-c3cccc(NC(=O)c4cccc(C(F)(F)F)c4)c3)ccnc12"
measure_unit = "µM"
qual = "="
observed_result = 5.94

[[record]]
smiles_data = "O=C(Nc1cccc(-c2ccnc3c(Br)cnn23)c1)Nc1cccc(C(F)(F)F)c1"
measure_unit = "µM"
qual = "="
observed_result = 1.33

[[record]]
smiles_data = "Cc1ccc(C(=O)Nc2cccc(-c3ccnc4cc(-c5ccc(Cl)cc5)nn34)c2)cc1C(F)(F)F"
measure_unit = "µM"
qual = ">"
observed_result = 10

[[record]]
smiles_data = "NC(=O)c1cnn2c(-c3cccc(NC(=O)c4cccc(C(F)(F)F)c4)c3)ccnc12"
measure_unit = "µM"
qual = ">"
observed_result = 10

[[record]]
smiles_data = "CCOC(=O)c1cnn2c(-c3cccc(NC(=O)c4cccc(OC)c4)c3)ccnc12"
measure_unit = "µM"
qual = ">"
observed_result = 10


====

Study Target: human B-Raf (Homo sapiens, UniProt P15056)
Construct: Flag; GST; made in house; host or cells: Sf9 insect cells (B-Raf); E. coli (MEK1-GST)
Assay Summary: B-Raf Kinase to MEK1 ELISA
Type: biochemical
Experimental Setup: read-out: % Inhib./10 uM
Property Name: inhibition at 10 µM (%)

[[record]]
smiles_data = "CCOC(=O)c1c(C)nn2c(-c3cccc(NC(=O)c4cccc(C(F)(F)F)c4)c3)ccnc12"
property_name = "inhibition at 10 µM"
observed_result = 4

[[record]]
smiles_data = "O=C(Nc1cccc(-c2ccnc3c(-c4cccc(C(F)(F)F)c4)cnn23)c1)c1cccc(C(F)(F)F)c1"
property_name = "inhibition at 10 µM"
observed_result = 33

[[record]]
smiles_data = "CN(CCN)c1cc(-c2cc3nccc(-c4cccc(NC(=O)c5cccc(C(F)(F)F)c5)c4)n3n2)ccn1"
property_name = "inhibition at 10 µM"
observed_result = 80

[[record]]
smiles_data = "CCOC(=O)c1cnn2c(-c3ccc(OCc4ccccc4)c(NC(=O)c4cccc(C(F)(F)F)c4)c3)ccnc12"
property_name = "inhibition at 10 µM"
observed_result = 4

[[record]]
smiles_data = "CCOC(=O)c1cnn2c(-c3cccc(NC(=O)c4ccccc4)c3)ccnc12"
property_name = "inhibition at 10 µM"
observed_result = 4

[[record]]
smiles_data = "CCOC(=O)c1cnn2c(-c3cccc(NC(=O)c4nn(-c5ccccc5)nc4C)c3)ccnc12"
property_name = "inhibition at 10 µM"
observed_result = 30

[[record]]
smiles_data = "O=C(Nc1ccc(F)c(-c2ccnc3cc(-c4ccncc4)nn23)c1)c1cccc(C(F)(F)F)c1"
property_name = "inhibition at 10 µM"
observed_result = 100


====

Reported pIC50 values for the following molecules.
Study Target: human B-Raf (Homo sapiens)
Construct: Flag; GST; made in house; host or cells: Sf9 insect cells (B-Raf); E. coli (MEK1-GST)
Assay Summary: B-Raf Kinase to MEK1 ELISA
Assay type: biochemical
Experimental Setup: median; cpd concentrations from 10 μM to 30 nM in half log dilutions; read-out: Median IC50
pIC50: −log10 of the molar value.
Property Name: pIC50

[[record]]
smiles_data = "CCOC(=O)c1cnn2c(-c3cccc(NC(=O)Nc4ccc(Cl)cc4C)c3)ccnc12"
observed_result = "< 5.00"

[[record]]
smiles_data = "CCOC(=O)c1cnn2c(-c3ccc(OC)c(NC(=O)c4cccc(C(F)(F)F)c4)c3)ccnc12"
observed_result = "< 5.00"

[[record]]
smiles_data = "O=C(Nc1cccc(-c2ccnc3c(-c4ccc(Cl)cc4)cnn23)c1)c1cccc(C(F)(F)F)c1"
observed_result = "< 5.00"

[[record]]
smiles_data = "CNC(=O)c1cnn2c(-c3cccc(NC(=O)c4cccc(C(F)(F)F)c4)c3)ccnc12"
observed_result = "< 5.00"

[[record]]
smiles_data = "CN(CCCN)c1cc(-c2cc3nccc(-c4cccc(NC(=O)c5cccc(C(F)(F)F)c5)c4)n3n2)ccn1"
observed_result = 5.56

[[record]]
smiles_data = "CCOC(=O)c1c(C)nn2c(-c3cccc(NC(=O)c4cccc(C(F)(F)F)c4)c3)ccnc12"
observed_result = "< 5.00"

[[record]]
smiles_data = "CCOC(=O)c1cnn2c(-c3cccc(NC(=O)Nc4ccc(Br)c(Cl)c4)c3)ccnc12"
observed_result = 6.22

[[record]]
smiles_data = "CCOC(=O)c1cnn2c(-c3cccc(NC(=O)Nc4ccc(SC)cc4)c3)ccnc12"
observed_result = "< 5.00"


Entry source: patent US20070219186A1
